# SYSTEM_TESTED: MDM2 (Homo sapiens, UniProt Q00987)
# Sequence (Q00987 whole entry): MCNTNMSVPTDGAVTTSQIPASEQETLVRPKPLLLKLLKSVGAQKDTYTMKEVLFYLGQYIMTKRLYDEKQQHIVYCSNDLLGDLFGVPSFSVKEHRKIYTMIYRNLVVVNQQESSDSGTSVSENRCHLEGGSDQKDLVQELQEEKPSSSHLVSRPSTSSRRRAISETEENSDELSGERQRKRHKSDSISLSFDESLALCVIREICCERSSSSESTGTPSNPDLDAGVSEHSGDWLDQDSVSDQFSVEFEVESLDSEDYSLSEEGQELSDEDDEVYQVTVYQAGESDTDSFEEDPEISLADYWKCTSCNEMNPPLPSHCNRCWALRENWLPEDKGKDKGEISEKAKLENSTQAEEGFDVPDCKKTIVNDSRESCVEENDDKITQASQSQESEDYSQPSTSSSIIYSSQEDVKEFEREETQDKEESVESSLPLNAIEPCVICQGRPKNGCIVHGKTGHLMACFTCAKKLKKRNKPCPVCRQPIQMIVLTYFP
# TEST_DESCRIPTION: fluorescence polarization assay, MDM2 binding
# ASSAY_CONDITIONS: read-out: Ki (μM) ± SD MDM2; fluorescence polarization, PMDM-F peptide, pH 7.5
EXPERIMENTAL_READOUT: Ki
Field: value (include unit after the number)

Query: Ki; subject: `O=C1/C(=C/c2cccc(Cl)c2)c2cc(Cl)ccc2N1S(=O)(=O)c1cccc(Cl)c1`
0.28 µM

Consider next the compound `O=C1/C(=C/c2cccc(Cl)c2)c2ccccc2N1S(=O)(=O)c1cccc(Br)c1` in the same way.
0.079 µM

Consider next the compound `O=C1/C(=C/c2cccc(Cl)c2)c2ccc(Cl)cc2N1S(=O)(=O)c1cccc(Cl)c1` in the same way.
1.39 µM

Consider next the compound `Cc1ccccc1S(=O)(=O)N1C(=O)/C(=C/c2cccc(Cl)c2)c2ccccc21` in the same way.
6.95 µM

Consider next the compound `O=C1/C(=C/c2cccc(Cl)c2)c2ccccc2N1S(=O)(=O)c1ccccc1Br` in the same way.
0.34 µM

Consider next the compound `O=C1/C(=C/c2ccc(Cl)cc2)c2ccccc2N1S(=O)(=O)c1cccc(Cl)c1` in the same way.
0.31 µM

***
Query: Ki; subject: `Cc1ccccc1S(=O)(=O)N1C(=O)/C(=C/c2ccc(Cl)cc2)c2ccccc21`
3.17 µM

Consider next the compound `O=C1/C(=C/c2cccc(Cl)c2)c2ccccc2N1S(=O)(=O)c1ccc(Cl)cc1` in the same way.
0.082 µM

###

Let's look at some compounds and their measured pKi.
# SYSTEM_TESTED: MDM2 (Homo sapiens)
# TEST_DESCRIPTION: fluorescence polarization assay, MDM2 binding
The read-out pKi is expressed as -log10 of concentration in moles per litre.

Some compounds with known pKi results, for comparison:
Query: pKi; subject: `O=C1/C(=C/c2ccccc2Cl)c2ccccc2N1C(=O)c1ccccc1Cl`
4.99

Consider next the compound `Cc1ccc(S(=O)(=O)N2C(=O)/C(=C/c3ccccc3Cl)c3ccccc32)cc1` in the same way.
4.99

Let's switch to this compound now.
Query: pKi; subject: `O=C1/C(=C/c2ccc(Cl)cc2)c2ccccc2N1C(=O)c1cccc(Cl)c1`
4.90

###

# Tested on: A549 cell line
# TEST_DESCRIPTION: MTT assay, A549
# Type: cell-based
# ASSAY_CONDITIONS: Homo sapiens, A549, 48 h, average of three determinations
EXPERIMENTAL_READOUT: IC50 (µM)
Dear colleague, please return just the value in µM, with no unit written.

Some compounds with known IC50 results, for comparison:
Query: IC50; subject: `O=C1/C(=C/c2cccc(Cl)c2)c2ccccc2N1S(=O)(=O)c1ccccc1F`
22.6

Consider next the compound `O=C1/C(=C/c2cccc(Cl)c2)c2ccccc2N1S(=O)(=O)c1ccccc1Cl` in the same way.
17.8

Consider next the compound `O=C1/C(=C/c2cccc(Cl)c2)c2ccccc2N1S(=O)(=O)c1ccc(Cl)cc1` in the same way.
20.3

Let's switch to this compound now.
Query: IC50; subject: `O=C1/C(=C/c2cccc(Cl)c2)c2ccccc2N1S(=O)(=O)c1ccc(F)cc1`
22.2

###

# SYSTEM_TESTED: MDMX (Homo sapiens)
# Sequence (O15151 whole entry): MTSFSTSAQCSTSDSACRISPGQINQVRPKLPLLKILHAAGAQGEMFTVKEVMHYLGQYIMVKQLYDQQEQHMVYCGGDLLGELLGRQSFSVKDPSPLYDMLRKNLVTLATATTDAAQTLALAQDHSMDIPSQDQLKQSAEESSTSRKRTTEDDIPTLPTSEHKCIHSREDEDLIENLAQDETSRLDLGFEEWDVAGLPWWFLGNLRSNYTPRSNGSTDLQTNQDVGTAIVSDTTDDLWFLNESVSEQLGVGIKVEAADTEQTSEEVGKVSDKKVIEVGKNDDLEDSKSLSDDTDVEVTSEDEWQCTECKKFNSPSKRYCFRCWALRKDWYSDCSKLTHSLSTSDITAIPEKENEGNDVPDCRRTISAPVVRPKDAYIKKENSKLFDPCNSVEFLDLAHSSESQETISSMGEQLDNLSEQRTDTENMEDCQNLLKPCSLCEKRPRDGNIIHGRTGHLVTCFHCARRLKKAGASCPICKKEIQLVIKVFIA
# TEST_DESCRIPTION: fluorescence polarization assay, MDMX binding
# ASSAY_CONDITIONS: read-out: Ki (μM) ± SD MDMX; fluorescence polarization, PMDM-F peptide, pH 7.5
EXPERIMENTAL_READOUT: Ki

Query: Ki; subject: Cc1cccc(S(=O)(=O)N2C(=O)/C(=C/c3cccc(Cl)c3)c3ccccc32)c1 [Compound A10]
> 50 µM

Consider next the molecule Cc1ccc(S(=O)(=O)N2C(=O)/C(=C/c3ccc(Cl)cc3)c3ccccc32)cc1 [Compound A26] in the same way.
> 50 µM

Consider next the molecule Cc1ccccc1S(=O)(=O)N1C(=O)/C(=C/c2cccc(Cl)c2)c2ccccc21 [Compound A9] in the same way.
> 50 µM

###

# SYSTEM_TESTED: UniProtKB O15151
# TEST_DESCRIPTION: fluorescence polarization assay, MDMX binding
pKi: −log10 of the molar value.
EXPERIMENTAL_READOUT: pKi

Some compounds with known pKi results, for comparison:
Query: pKi; subject: O=C1/C(=C/c2ccc(Cl)cc2)c2ccccc2N1C(=O)c1cccc(Cl)c1 [Compound B10]
< 4.30

Consider next the compound Cc1cccc(C(=O)N2C(=O)/C(=C/c3ccccc3Cl)c3ccccc32)c1 [Compound B5] in the same way.
< 4.30

Consider next the compound Cc1cccc(S(=O)(=O)N2C(=O)/C(=C/c3ccccc3Cl)c3ccccc32)c1 [Compound A3] in the same way.
< 4.30

Consider next the compound Cc1ccccc1C(=O)N1C(=O)/C(=C/c2ccccc2Cl)c2ccccc21 [Compound B4] in the same way.
< 4.30

Consider next the compound O=C1/C(=C/c2cccc(Cl)c2)c2ccccc2N1C(=O)c1ccc(Cl)cc1 [Compound B9] in the same way.
< 4.30

***
Query: pKi; subject: Cc1ccc(C(=O)N2C(=O)/C(=C/c3ccccc3Cl)c3ccccc32)cc1 [Compound B6]
< 4.30

Consider next the compound O=C1/C(=C/c2ccccc2Cl)c2ccccc2N1S(=O)(=O)c1ccccc1 [Compound A1] in the same way.
< 4.30

###

# SYSTEM_TESTED: MDMX (Homo sapiens)
# TEST_DESCRIPTION: fluorescence polarization assay, MDMX binding
pKi: −log10 of the molar value.
EXPERIMENTAL_READOUT: pKi

Some compounds with known pKi results, for comparison:
Query: pKi; subject: `O=C1/C(=C/c2ccccc2Cl)c2ccccc2N1C(=O)c1ccc(Cl)cc1`
< 4.30

Consider next the compound `O=C1/C(=C/c2cccc(Cl)c2)c2ccccc2N1S(=O)(=O)c1cccc(F)c1` in the same way.
4.77

Consider next the compound `O=C1/C(=C/c2ccccc2Cl)c2ccccc2N1C(=O)c1cccc(Cl)c1` in the same way.
< 4.30

Consider next the compound `O=C1/C(=C/c2cccc(Cl)c2)c2ccccc2N1S(=O)(=O)c1ccccc1F` in the same way.
4.75

Consider next the compound `Cc1ccc(S(=O)(=O)N2C(=O)/C(=C/c3ccccc3Cl)c3ccccc32)cc1` in the same way.
< 4.30

Consider next the compound `Cc1ccccc1S(=O)(=O)N1C(=O)/C(=C/c2ccccc2Cl)c2ccccc21` in the same way.
< 4.30

***
Query: pKi; subject: `O=C1/C(=C/c2cccc(Cl)c2)c2ccccc2N1S(=O)(=O)c1ccc(F)cc1`
4.54

Consider next the compound `O=C1/C(=C/c2ccccc2Cl)c2ccccc2N1C(=O)c1ccccc1Cl` in the same way.
< 4.30

Consider next the compound `Cc1ccc(S(=O)(=O)N2C(=O)/C(=C/c3cccc(Cl)c3)c3ccccc32)cc1` in the same way.
< 4.30

Consider next the compound `O=C1/C(=C/c2cccc(Cl)c2)c2ccccc2N1C(=O)c1ccccc1Cl` in the same way.
< 4.30
